systemTested: NET (Rattus norvegicus, UniProt Q63380)
Construct: from tissue; host or cells: rat hypothalamus synaptosomes
Sequence (Q63380 1-617): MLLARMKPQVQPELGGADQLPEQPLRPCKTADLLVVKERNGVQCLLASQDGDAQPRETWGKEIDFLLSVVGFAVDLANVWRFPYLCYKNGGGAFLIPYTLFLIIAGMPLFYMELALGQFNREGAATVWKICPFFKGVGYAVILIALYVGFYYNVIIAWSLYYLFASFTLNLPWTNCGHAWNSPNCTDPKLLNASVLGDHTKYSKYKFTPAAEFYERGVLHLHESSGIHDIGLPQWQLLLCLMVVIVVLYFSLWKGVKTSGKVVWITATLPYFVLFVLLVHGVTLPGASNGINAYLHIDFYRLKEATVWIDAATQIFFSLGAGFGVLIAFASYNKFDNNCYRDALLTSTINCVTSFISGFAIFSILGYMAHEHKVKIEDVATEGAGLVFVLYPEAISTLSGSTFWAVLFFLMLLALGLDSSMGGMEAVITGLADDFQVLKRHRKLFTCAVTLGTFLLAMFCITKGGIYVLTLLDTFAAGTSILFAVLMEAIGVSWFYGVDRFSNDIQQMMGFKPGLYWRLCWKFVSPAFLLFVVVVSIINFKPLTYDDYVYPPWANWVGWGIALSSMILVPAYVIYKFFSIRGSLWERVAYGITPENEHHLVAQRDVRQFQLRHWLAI
procedureSummary: NE uptake inhibition assay, rat hypothalamus synaptosomes
Type: biochemical
conditionSummary: [3H]norepinephrine, rat hypothalamus synaptosomes, 20 min 37° C.; read-out: NET IC50 (norepinephrine reuptake inhibition)
measuredParameter: pIC50
Give only the number. pIC50 is defined as minus log10 of concentration in molar units.

Problem: So what pIC50 did Cc1cccc2c1Oc1ccccc1C1(O)CCN(C)CC21 (single isomer, unassigned; (-)) [(−)-beloxepin] get with NET (Rattus norvegicus, UniProt Q63380)?
Result: 6.92

----------
systemTested: NET (Rattus norvegicus)
Construct: from tissue; host or cells: rat hypothalamus synaptosomes
procedureSummary: NE uptake inhibition assay, rat hypothalamus synaptosomes
Assay type: biochemical
conditionSummary: read-out: NET IC50 (norepinephrine reuptake inhibition)
measuredParameter: IC50 (nM)
Could you give me the number in nM? Just the number is fine.

Problem: Reported IC50 for Cc1cccc2c1Oc1ccccc1C1(O)CCN(C)CC21 (racemic) [(±)-beloxepin] : what is it?
Result: 130
